Recorded below: AC50, system 5-hydroxytryptamine receptor 2B (Homo sapiens, UniProt P41595). Also: assay procedure not described here.
Experimental Endpoint: AC50

In [3]: df
Out[3]:
                                   molecule                              assay_system  experimental_endpoint  reading
0  CN1CCN(C(=O)OC2c3nccnc3C(=O)N2c2ccc(Cl)cn2)CC1 (stereo not drawn)  5-hydroxytryptamine receptor 2B (Homo sapiens, UniProt P41595)                   AC50  > 10 µM
1  CCC[C@@H]1C[C@@H](C(=O)N[C@@H]([C@H]2O[C@H](SC)[C@H](O)[C@@H](O)[C@H]2O)[C@H](C)Cl)N(C)C1  5-hydroxytryptamine receptor 2B (Homo sapiens, UniProt P41595)                   AC50  > 10 µM
2  C#C[C@]1(O)CC[C@H]2[C@@H]3CCc4cc(O)ccc4[C@H]3CC[C@@]21C  5-hydroxytryptamine receptor 2B (Homo sapiens, UniProt P41595)                   AC50  > 30 µM

###

This section lists AC50 readings for Adenosine receptor A3 (Homo sapiens).

Compound	AC50
C[C@@H]1C[C@H]2[C@@H]3C[C@H](F)C4=CC(=O)C=C[C@]4(C)[C@@]3(F)[C@@H](O)C[C@]2(C)[C@@]1(O)C(=O)COC(=O)C(C)(C)C [FLUMETHASONE PIVALATE]	> 30 µM
CCN(CC)CCNc1ccc(C)c2sc3ccccc3c(=O)c12 [LUCANTHONE]	12.4 µM
CCCC1C(=O)N2C(N(C)C)=Nc3ccc(C)cc3N2C1=O (configuration not stated) [APAZONE]	3.84 µM
Cn1cc[nH]c1=S [METHIMAZOLE]	> 30 µM
O=C1[C@H](CC[C@H](O)c2ccc(F)cc2)[C@@H](c2ccc(O)cc2)N1c1ccc(F)cc1 [EZETIMIBE]	6.34 µM
CC(=O)Oc1c(C)cc(OCC(O)CNC(C)C)c(C)c1C (configuration not stated) [METIPRANOLOL]	> 30 µM
Oc1ncnc2[nH]ncc12 [ALLOPURINOL]	> 30 µM
C[C@H]1O[C@H](O[C@H]2[C@H](O)[C@@H](O)[C@@H](O[C@H]3[C@H](O)[C@@H](O)C(O)O[C@@H]3CO)O[C@@H]2CO)[C@H](O)[C@@H](O)[C@@H]1N[C@H]1C=C(CO)[C@@H](O)[C@H](O)[C@H]1O (some centres not stated) [ACARBOSE]	> 30 µM
Cc1cc(O)cc(C)c1Cl [CHLOROXYLENOL]	> 30 µM
CN1CCCC(CN2c3ccccc3Sc3ccccc32)C1 (configuration not stated) [MEPAZINE]	> 30 µM
O=C(Nc1ccccc1)OCC(CN1CCCCC1)OC(=O)Nc1ccccc1 (configuration not stated) [DIPERODON]	> 30 µM
O=C1CC[C@@]2(O)[C@H]3Cc4ccc(O)c5c4[C@@]2(CCN3CC2CC2)[C@H]1O5 [NALTREXONE]	> 30 µM

###

- Assay System: Alpha-2C adrenergic receptor (Homo sapiens, UniProt P18825); also: assay procedure not described here
- Sequence (P18825 whole entry): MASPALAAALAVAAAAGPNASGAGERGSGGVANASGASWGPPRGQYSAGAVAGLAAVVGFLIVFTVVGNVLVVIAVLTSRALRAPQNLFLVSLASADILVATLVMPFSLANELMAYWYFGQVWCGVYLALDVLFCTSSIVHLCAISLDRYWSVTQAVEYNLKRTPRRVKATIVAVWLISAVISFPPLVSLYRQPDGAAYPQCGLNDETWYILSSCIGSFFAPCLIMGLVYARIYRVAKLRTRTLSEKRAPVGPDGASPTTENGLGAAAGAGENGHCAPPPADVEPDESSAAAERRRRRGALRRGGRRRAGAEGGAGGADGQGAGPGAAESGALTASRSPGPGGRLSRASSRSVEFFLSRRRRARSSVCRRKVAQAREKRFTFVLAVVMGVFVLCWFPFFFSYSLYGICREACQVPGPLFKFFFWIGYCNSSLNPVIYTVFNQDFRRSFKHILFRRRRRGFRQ
- Type: functional
Examples of compounds with documented AC50 follow.

Compound	AC50
CN1CCN(C(=O)OC2c3nccnc3C(=O)N2c2ccc(Cl)cn2)CC1 (stereo not drawn)	> 30 µM
COC(=O)N[C@H](C(=O)N1CCC[C@H]1c1nc(-c2ccc(-c3ccc(-c4c[nH]c([C@@H]5CCCN5C(=O)[C@@H](NC(=O)OC)C(C)C)n4)cc3)cc2)c[nH]1)C(C)C	> 30 µM
O=P(O)(O)C(O)(Cc1cccnc1)P(=O)(O)O	> 30 µM
